test system: Fibroblast; test: Multiplex assay against human fibroblast; type: toxicity, cell-based; settings: 12 h, 1 µM, compound concentration 1 uM, number of replicates 2
metric: Population Mitochondria Different-Phenotype (%)

molecule=O=C(Nc1ccnc(NC(=O)C2CC2)c1)c1c(Cl)cccc1Cl system_tested=Fibroblast recorded_measurement=0
molecule=CN(C)CCCNc1ccnc(Nc2cccc(Cl)c2)n1 system_tested=Fibroblast recorded_measurement=1
molecule="COc1ccc(F)c(F)c1C(=O)c1cnc(NC2CCN(S(C)(=O)=O)CC2)nc1N [RG-547]" system_tested=Fibroblast recorded_measurement=0
molecule=CNc1ncc2cc(-c3ccc(-c4cccc(C)n4)cc3Cl)c(=O)n(C[C@H]3OC[C@H](N)CO3)c2n1 system_tested=Fibroblast recorded_measurement=0
molecule=CNS(=O)(=O)c1ccc(N(C)C)c(Nc2ncnc3cc(OC)c(OC)cc23)c1 system_tested=Fibroblast recorded_measurement=0
molecule="CCN1C(=O)N(c2c(F)c(OC)cc(OC)c2F)Cc2cnc3[nH]c(CN4CCOCC4)cc3c21 [PEMIGATINIB]" system_tested=Fibroblast recorded_measurement=1
molecule=COC(=O)Nc1nc2c(s1)-c1c(c(-c3cccnc3)nn1-c1ccc(C3(N(C)C)CC3)cc1)CC2.Cl.Cl system_tested=Fibroblast recorded_measurement=0
molecule=CC(C)c1c(NC(=O)Nc2ccc(Cl)cc2)c(=O)n(-c2ccccc2)n1C system_tested=Fibroblast recorded_measurement=0
molecule="Cl.Clc1ccc2nsnc2c1NC1=NCCN1 [TIZANIDINE HYDROCHLORIDE]" system_tested=Fibroblast recorded_measurement=0
molecule="O=C1Nc2ccc(C(=O)c3ccco3)cc2C1=Cc1cc(Cl)c(O)c(Cl)c1 [GW406108X]" system_tested=Fibroblast recorded_measurement=1
molecule=COc1cc(N(C)c2ccnc3ccc(C(F)(F)F)cc23)cc(OC)c1OC system_tested=Fibroblast recorded_measurement=0
molecule=O=C1NC(=NCc2cccs2)SC1=Cc1ccc2ncccc2c1 system_tested=Fibroblast recorded_measurement=0

###

tested on: HEK-293T; assay: Multiplex assay against HEK293T; format: toxicity, cell-based; conditions: human, 48 h, 10 µM, compound concentration 10 uM, number of replicates 2
metric: Population Pyknosed Nuclei (%)

chemical_smiles=COc1ccc(CC[C@@H](OC(=O)[C@@H]2CCCCN2C(=O)[C@H](c2cc(OC)c(OC)c(OC)c2)C2CCCCC2)c2cccc(OCCN3CCOCC3)c2)cc1OC recorded_measurement=11%
chemical_smiles=COc1cc(N(C)c2ccnc3ccc(C(F)(F)F)cc23)cc(OC)c1OC recorded_measurement=5%
chemical_smiles=CS(=O)(=O)c1ccc(C(=O)Nc2cc(F)cc(COc3cc(F)c(Br)cc3CN3CC[C@H](O)C3)c2)c(Cl)c1.O=CO recorded_measurement=18%
chemical_smiles=NC(=O)c1ccc(-c2nc(-c3ccc4c(c3)OCCO4)c(-c3ccccn3)[nH]2)cc1 recorded_measurement=3%
chemical_smiles=O=C1NC(=NCc2cccs2)SC1=Cc1ccc2ncccc2c1 recorded_measurement=3%
chemical_smiles=CCN1C(=O)N(c2c(F)c(OC)cc(OC)c2F)Cc2cnc3[nH]c(CN4CCOCC4)cc3c21 recorded_measurement=3%

###

tested on: HEK-293T; assay: Multiplex assay against HEK293T; format: toxicity, cell-based; settings: human, 48 h, 1 µM, compound concentration 1 uM, number of replicates 2
metric: Population Mitochondria Different-Phenotype (%)

compound=CSc1cc2c(cc1C(F)(F)F)N(C(=O)Nc1cccnc1)CC2 recorded_measurement=0%
compound=CNS(=O)(=O)c1ccc(N(C)C)c(Nc2ncnc3cc(OC)c(OC)cc23)c1 recorded_measurement=0%
compound=COc1cc(N(C)c2ccnc3ccc(C(F)(F)F)cc23)cc(OC)c1OC recorded_measurement=0%
compound=CN(C)CCCNc1ccnc(Nc2cccc(Cl)c2)n1 recorded_measurement=0%
compound=NC(=O)c1ccc(-c2nc(-c3ccc4c(c3)OCCO4)c(-c3ccccn3)[nH]2)cc1 recorded_measurement=0%
compound=COc1ccccc1-c1cc(Nc2cccc(CS(N)(=O)=O)c2)ncn1 recorded_measurement=0%
compound=O=C1NC(=O)C(c2ccccc2[N+](=O)[O-])=C1Nc1ccc(O)c(Cl)c1 recorded_measurement=0%
compound=CC(C)c1c(NC(=O)Nc2ccc(Cl)cc2)c(=O)n(-c2ccccc2)n1C recorded_measurement=0%
compound=Cn1cc(-c2ccc(-c3cncc(Cl)c3N3CCC4(CCNC4=O)CC3)cc2)cn1 recorded_measurement=2%
compound=COc1ccncc1C(=O)NC(=O)Nc1ccc(-c2ccccc2)c(C(F)(F)F)c1 recorded_measurement=0%
compound=CCN1C(=O)N(c2c(F)c(OC)cc(OC)c2F)Cc2cnc3[nH]c(CN4CCOCC4)cc3c21 recorded_measurement=0%
compound="O=C1Nc2ccc(C(=O)c3ccco3)cc2C1=Cc1cc(Cl)c(O)c(Cl)c1 [GW406108X]" recorded_measurement=0%

###

test system: Fibroblast; assay: Multiplex assay against human fibroblast; assay type: toxicity, cell-based; settings: 24 h, 10 µM, compound concentration 10 uM, number of replicates 2
metric: Population Mitochondria Different-Phenotype (%)

molecule="O=C1Nc2ccc(C(=O)c3ccco3)cc2C1=Cc1cc(Cl)c(O)c(Cl)c1 [GW406108X]" recorded_measurement=1
molecule=CNS(=O)(=O)c1ccc(N(C)C)c(Nc2ncnc3cc(OC)c(OC)cc23)c1 recorded_measurement=2
molecule=O=C(Nc1ccnc(NC(=O)C2CC2)c1)c1c(Cl)cccc1Cl recorded_measurement=0
molecule=CC(C)c1c(NC(=O)Nc2ccc(Cl)cc2)c(=O)n(-c2ccccc2)n1C recorded_measurement=0
molecule=CSc1cc2c(cc1C(F)(F)F)N(C(=O)Nc1cccnc1)CC2 recorded_measurement=0
molecule=NC(=O)c1ccc(-c2nc(-c3ccc4c(c3)OCCO4)c(-c3ccccn3)[nH]2)cc1 recorded_measurement=1
molecule="CCN1C(=O)N(c2c(F)c(OC)cc(OC)c2F)Cc2cnc3[nH]c(CN4CCOCC4)cc3c21 [PEMIGATINIB]" recorded_measurement=3

###

system: HEK-293T; assay: Multiplex assay against HEK293T; assay type: toxicity, cell-based; conditions: human, 24 h, 10 µM, compound concentration 10 uM, number of replicates 2
Population Membrane Permeable-Phenotype (%) reference
metric: Population Membrane Permeable-Phenotype (%)

chemical_smiles=CC(C)(C)c1cnc(CSc2cnc(NC(=O)C3CCNCC3)s2)o1 readout_unit=% recorded_measurement=0
chemical_smiles=CNS(=O)(=O)c1ccc(N(C)C)c(Nc2ncnc3cc(OC)c(OC)cc23)c1 readout_unit=% recorded_measurement=1
chemical_smiles=COc1ccc(CC[C@@H](OC(=O)[C@@H]2CCCCN2C(=O)[C@H](c2cc(OC)c(OC)c(OC)c2)C2CCCCC2)c2cccc(OCCN3CCOCC3)c2)cc1OC readout_unit=% recorded_measurement=0
chemical_smiles=CC(C)N1CCN(Cc2cnc(-c3cc(-c4cccc5[nH]ccc45)cc4[nH]ncc34)o2)CC1 readout_unit=% recorded_measurement=3

###

test system: HEK-293T; test: Multiplex assay against HEK293T; type: toxicity, cell-based; conditions: human, 24 h, 10 µM, compound concentration 10 uM, number of replicates 2
metric: Population Healthy Nuclei (%)

compound=COc1ccccc1-c1cc(Nc2cccc(CS(N)(=O)=O)c2)ncn1 readout_unit=% recorded_measurement=90
compound=CN1CCc2cc(Nc3ncc(C(F)(F)F)c(NCc4cc[nH]n4)n3)ccc2C1 readout_unit=% recorded_measurement=87
compound=CS(=O)(=O)c1ccc(C(=O)Nc2cc(F)cc(COc3cc(F)c(Br)cc3CN3CC[C@H](O)C3)c2)c(Cl)c1.O=CO readout_unit=% recorded_measurement=76
compound=CS(=O)(=O)c1ccc(C(=O)Nc2ccc(F)c(COc3ccc(Br)cc3CNCCO)c2)c(Cl)c1.O=CO readout_unit=% recorded_measurement=75
compound="CC1=C(C)C(=O)C(C(CCCCCC(=O)O)c2ccccc2)=C(C)C1=O (stereo not given)" readout_unit=% recorded_measurement=86

###

Some compounds, each annotated with its measured Population Normal (%).
test system: HEK-293T; assay: Multiplex assay against HEK293T; assay type: toxicity, cell-based; conditions: human, 12 h, 1 µM, compound concentration 1 uM, number of replicates 2
metric: Population Normal (%)

compound=COc1ccc(F)c(F)c1C(=O)c1cnc(NC2CCN(S(C)(=O)=O)CC2)nc1N system_tested=HEK-293T recorded_measurement=91
compound=CS(=O)(=O)c1ccc(C(=O)Nc2cc(F)cc(COc3cc(F)c(Br)cc3CN3CC[C@H](O)C3)c2)c(Cl)c1.O=CO system_tested=HEK-293T recorded_measurement=90
compound=c1ccc2c(-c3coc4cc(-c5ccc(N6CCNCC6)cc5)cnc34)ccnc2c1 system_tested=HEK-293T recorded_measurement=94
compound=CS(=O)(=O)c1ccc(C(=O)Nc2cc(F)c(F)c(COc3cc(F)c(Br)cc3CN3CC[C@H](O)C3)c2)c(Cl)c1.O=CO system_tested=HEK-293T recorded_measurement=90
compound="O=C1Nc2ccc(C(=O)c3ccco3)cc2C1=Cc1cc(Cl)c(O)c(Cl)c1 [GW406108X]" system_tested=HEK-293T recorded_measurement=90
compound=CC(C)c1cc(-c2ccc(F)c3ccccc23)nc(N)n1 system_tested=HEK-293T recorded_measurement=94
